# experimental-system: Intercellular adhesion molecule (ICAM-1), Integrin alpha-L/beta-2 (Homo sapiens, UniProt P05107+P20701)
# Sequence (P05362 whole entry, one chain of several, further chain): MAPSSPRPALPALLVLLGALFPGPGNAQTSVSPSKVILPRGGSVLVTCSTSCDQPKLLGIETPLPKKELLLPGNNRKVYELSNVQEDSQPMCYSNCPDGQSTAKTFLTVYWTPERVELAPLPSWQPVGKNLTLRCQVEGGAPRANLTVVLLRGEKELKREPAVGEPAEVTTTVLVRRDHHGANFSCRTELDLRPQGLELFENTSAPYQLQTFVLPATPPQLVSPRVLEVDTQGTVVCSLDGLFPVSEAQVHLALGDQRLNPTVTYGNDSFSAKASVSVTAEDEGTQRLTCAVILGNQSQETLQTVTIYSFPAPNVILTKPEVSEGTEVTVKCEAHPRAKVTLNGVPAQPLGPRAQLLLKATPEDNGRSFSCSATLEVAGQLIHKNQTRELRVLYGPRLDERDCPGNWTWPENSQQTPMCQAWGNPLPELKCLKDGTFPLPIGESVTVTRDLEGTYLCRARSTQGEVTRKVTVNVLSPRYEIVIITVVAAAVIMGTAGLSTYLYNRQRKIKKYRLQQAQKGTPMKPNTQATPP
# Sequence (P05107 whole entry, one chain of several): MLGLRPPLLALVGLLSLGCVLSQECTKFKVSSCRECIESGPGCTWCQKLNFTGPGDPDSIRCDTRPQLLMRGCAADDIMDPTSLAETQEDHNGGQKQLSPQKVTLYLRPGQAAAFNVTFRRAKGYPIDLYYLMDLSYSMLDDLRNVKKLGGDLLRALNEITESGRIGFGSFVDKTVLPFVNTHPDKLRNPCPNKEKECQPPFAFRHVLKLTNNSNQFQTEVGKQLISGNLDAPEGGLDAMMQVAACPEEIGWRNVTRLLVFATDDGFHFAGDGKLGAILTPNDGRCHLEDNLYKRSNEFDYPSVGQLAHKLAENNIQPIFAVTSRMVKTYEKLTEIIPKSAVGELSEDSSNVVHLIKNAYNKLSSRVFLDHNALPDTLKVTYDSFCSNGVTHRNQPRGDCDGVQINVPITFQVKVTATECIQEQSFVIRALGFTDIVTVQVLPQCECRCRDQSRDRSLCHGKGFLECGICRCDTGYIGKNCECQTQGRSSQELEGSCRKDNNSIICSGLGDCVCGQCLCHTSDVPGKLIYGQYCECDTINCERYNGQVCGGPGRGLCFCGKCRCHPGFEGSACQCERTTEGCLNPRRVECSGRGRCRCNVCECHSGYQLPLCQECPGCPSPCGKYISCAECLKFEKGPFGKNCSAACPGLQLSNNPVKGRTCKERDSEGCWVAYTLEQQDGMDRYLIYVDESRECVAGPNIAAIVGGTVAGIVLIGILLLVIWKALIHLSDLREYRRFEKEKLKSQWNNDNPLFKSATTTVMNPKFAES
# assay-notes: Inhibition of LFA-1 mediated JY-8 cell adhesion to ICAM-1, range (6-10)
# Format: functional, cell-based
property: IC50
Answer by giving the amount and then stating its unit.

Fill in the blank: the reported IC50 of `CC(=O)N1CCN(C(=O)/C=C/c2ccc(Sc3ccc4c(c3)OCCO4)c(Cl)c2Cl)CC1` is ____. 8 nM

----------
# experimental-system: Integrin alpha-L (Homo sapiens, UniProt P20701)
# Sequence (P20701 whole entry): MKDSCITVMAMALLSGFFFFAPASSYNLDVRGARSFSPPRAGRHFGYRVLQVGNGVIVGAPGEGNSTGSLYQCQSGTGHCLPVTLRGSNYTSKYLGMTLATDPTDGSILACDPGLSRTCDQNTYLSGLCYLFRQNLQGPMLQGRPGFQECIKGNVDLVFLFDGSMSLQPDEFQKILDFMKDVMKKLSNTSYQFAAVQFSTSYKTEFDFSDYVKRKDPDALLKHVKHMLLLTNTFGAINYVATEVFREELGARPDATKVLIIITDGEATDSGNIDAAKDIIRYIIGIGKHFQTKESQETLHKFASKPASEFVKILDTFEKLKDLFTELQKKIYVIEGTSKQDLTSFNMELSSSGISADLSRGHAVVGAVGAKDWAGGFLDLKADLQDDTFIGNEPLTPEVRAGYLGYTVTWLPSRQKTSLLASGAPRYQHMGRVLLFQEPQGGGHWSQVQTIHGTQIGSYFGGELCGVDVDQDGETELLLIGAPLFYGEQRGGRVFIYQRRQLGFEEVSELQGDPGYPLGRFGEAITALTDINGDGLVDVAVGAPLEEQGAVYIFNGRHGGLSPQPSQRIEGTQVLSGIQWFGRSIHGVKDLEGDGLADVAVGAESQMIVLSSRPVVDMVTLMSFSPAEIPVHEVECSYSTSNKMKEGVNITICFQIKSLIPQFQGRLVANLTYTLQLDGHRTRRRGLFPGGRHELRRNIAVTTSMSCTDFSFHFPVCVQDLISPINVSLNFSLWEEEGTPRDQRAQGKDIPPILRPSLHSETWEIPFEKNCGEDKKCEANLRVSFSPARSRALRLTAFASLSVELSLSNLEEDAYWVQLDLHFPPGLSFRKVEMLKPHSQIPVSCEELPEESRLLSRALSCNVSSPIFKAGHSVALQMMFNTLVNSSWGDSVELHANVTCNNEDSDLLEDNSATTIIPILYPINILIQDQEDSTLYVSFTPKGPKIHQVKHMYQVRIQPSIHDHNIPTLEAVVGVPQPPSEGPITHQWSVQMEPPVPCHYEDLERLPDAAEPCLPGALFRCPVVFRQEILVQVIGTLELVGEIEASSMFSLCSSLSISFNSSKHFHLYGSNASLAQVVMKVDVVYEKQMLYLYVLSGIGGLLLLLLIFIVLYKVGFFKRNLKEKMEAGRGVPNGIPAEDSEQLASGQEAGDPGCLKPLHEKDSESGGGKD
# assay-notes: Inhibition of intercellular adhesion molecule-1 (ICAM-1) binding to recombinant LFA-1, range (6-10)
property: IC50 (nM)
Respond with the bare value in nM.

API: value(readout=IC50, system=Integrin alpha-L (Homo sapiens, UniProt P20701)) for record `COc1ccccc1Sc1ccc(/C=C/C(=O)N2CCOCC2)c(C(F)(F)F)c1Cl` 8
